Source: patent US20100129369A1

target: human c-Met (human, UniProt P08581 25-1390); assay: cell-based or functional assay
Sequence (P08581 25-1390): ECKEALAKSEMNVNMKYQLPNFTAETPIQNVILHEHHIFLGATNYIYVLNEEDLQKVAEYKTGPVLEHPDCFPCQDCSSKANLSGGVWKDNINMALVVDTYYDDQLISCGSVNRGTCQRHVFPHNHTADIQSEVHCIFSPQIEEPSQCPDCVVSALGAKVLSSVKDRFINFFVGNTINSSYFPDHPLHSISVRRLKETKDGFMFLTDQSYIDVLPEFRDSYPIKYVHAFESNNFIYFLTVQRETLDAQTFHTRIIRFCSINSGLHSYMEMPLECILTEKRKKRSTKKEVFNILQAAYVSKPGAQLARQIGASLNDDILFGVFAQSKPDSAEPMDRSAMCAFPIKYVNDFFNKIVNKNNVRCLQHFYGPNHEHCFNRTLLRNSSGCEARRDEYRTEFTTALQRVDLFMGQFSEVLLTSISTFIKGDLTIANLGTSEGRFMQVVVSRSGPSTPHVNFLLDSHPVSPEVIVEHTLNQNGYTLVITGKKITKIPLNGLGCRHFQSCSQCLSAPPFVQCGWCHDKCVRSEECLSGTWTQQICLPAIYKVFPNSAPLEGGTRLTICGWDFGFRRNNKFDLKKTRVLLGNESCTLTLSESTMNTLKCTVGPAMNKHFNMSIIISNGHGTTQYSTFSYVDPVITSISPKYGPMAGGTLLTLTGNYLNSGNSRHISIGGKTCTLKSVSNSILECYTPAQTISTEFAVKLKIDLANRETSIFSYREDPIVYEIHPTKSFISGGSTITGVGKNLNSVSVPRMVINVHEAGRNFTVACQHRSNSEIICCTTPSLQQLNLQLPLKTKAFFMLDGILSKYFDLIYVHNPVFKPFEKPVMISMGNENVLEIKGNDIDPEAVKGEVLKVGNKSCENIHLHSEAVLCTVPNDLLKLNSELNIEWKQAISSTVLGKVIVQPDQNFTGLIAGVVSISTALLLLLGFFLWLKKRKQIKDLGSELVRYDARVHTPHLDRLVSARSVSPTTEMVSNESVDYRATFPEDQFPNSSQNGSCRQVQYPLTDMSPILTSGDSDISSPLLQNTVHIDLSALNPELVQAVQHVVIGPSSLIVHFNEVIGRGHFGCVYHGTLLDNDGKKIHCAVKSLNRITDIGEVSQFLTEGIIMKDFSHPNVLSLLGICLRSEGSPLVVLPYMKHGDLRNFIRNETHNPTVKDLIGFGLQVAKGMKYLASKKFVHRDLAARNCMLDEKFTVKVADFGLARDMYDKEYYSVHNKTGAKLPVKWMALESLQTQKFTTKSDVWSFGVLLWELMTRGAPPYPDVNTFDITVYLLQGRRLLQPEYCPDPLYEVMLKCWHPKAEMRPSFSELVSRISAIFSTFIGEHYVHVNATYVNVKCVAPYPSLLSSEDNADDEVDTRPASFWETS
Entries annotated with measured % inhibition of HGF stimulated phospho-Met (ELISA, HCT116 cells), Ab 10 µg/mL
Value expressed in %; do not type the unit.

Solved entries (count: 3):
BINDER	RECORDED_NUMBER
C8-co-16 (antibody, human IgG2, kappa, V domains shown, Named IgG4 kappa; also called C8-co-16 IgG4) VH: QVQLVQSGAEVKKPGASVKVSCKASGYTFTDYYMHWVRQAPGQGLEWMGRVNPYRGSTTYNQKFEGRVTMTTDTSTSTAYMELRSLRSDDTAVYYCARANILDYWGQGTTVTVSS VL: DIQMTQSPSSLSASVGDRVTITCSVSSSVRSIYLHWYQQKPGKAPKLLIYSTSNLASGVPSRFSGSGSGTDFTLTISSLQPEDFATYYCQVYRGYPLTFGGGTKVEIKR	65.4
D11-8B8 (antibody, human IgG2, kappa, V domains shown, Human engineered IgG2 kappa c-Met antibody; also called Mab D11-8B8; D11-8B8 IgG2) VH: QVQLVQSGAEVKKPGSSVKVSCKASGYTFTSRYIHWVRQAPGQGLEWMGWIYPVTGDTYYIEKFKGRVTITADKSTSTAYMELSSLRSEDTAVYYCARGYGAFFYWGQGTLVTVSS VL: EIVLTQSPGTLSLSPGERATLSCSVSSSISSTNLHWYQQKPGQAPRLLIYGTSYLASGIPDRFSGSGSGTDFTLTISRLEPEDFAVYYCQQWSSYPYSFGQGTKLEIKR	19.6
D11-C27G3 (antibody, human IgG2, kappa, V domains shown, Human engineered IgG2 kappa c-Met antibody; also called D11-27G3; D11-C27G3 IgG2) VH: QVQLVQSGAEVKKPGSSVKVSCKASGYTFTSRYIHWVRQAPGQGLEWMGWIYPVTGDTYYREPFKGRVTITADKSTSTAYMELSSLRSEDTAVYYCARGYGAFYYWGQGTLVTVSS VL: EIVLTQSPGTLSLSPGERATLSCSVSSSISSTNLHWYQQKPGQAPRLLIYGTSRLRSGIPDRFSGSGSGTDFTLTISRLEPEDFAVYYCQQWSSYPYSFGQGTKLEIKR	1.25

Please look at the following binder next.
Query block: Could you please provide reported % inhibition of HGF stimulated phospho-Met (ELISA, HCT116 cells), Ab 10 µg/mL for D11-S17Y (antibody, human IgG2, kappa, V domains shown, Human engineered IgG2 kappa c-Met antibody; also called D11-S17Y IgG2) VH: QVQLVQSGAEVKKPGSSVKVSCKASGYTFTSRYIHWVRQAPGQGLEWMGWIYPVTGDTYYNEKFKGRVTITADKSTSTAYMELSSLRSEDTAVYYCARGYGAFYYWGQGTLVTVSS VL: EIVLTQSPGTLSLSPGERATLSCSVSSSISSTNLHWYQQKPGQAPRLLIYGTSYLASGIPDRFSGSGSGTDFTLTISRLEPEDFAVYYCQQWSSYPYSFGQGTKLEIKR ? Thanks!
Result block: 16.7
